These compounds were tested on Cytochrome P450 2C9 (Homo sapiens); AC50 is the recorded read-out.
Peptide text beside a SMILES is read from it. * marks the point of attachment. Boc = CC(C)(C)OC(=O)*

Cn1c(SCC(=O)NC2CC2)nnc1-c1cccc(NC(=O)c2ccccc2F)c1 :: 17.8 µM (inconclusive)
CC(=O)Nc1cccc(C(=O)OCc2ccc(C(=O)Oc3ccc(Cl)cc3)cc2)c1 :: 1.12 µM (inconclusive)
CS(=O)(=O)Nc1ccc(Cc2noc(-c3ccc4[nH]cc(CCN)c4c3)n2)cc1 :: 31.6 µM (inconclusive)
N#Cc1cccc(-c2nc3cnc(Nc4ccccc4)nc3n(C[C@H]3CCCO3)c2=O)c1 :: 10 µM (inconclusive)
CCOc1ccc(OCCOCCN2CCc3ccccc3C2)cc1 :: 11.2 µM (inconclusive)
c1ccc(-c2csc(Nc3nc(N4CCOCC4)nc(N4CCOCC4)n3)n2)cc1 :: 3.16 µM (inconclusive)
O=C(COc1ccc([N+](=O)[O-])cc1)NCc1ccccc1 :: 17.8 µM (inconclusive)
CCc1cc(C(=O)OC)c(NC(=O)CCCC(=O)O)s1 :: 28.2 µM (inconclusive)

Now consider the entry below.
Task: Looking for the measured AC50 of CC(C)C(NC(=O)OC(C)(C)C)C(=O)N1CCCC1C(=O)NC(Cc1ccccc1)C(N)=O (stereo not drawn) (Boc-Val-Pro-Phe-NH2; configuration not given here) , can you help?
Result: 31.6 µM (inconclusive)

###

// IC50 lookup, one value per entry
target: Probable nicotinate-nucleotide adenylyltransferase (Staphylococcus aureus (strain N315), UniProt P65502); assay type: functional, Staphylococcus aureus subsp. aureus N315; conditions: read-out: IC50_Mean;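 note: confirmatory dose-response retesting of NadD inhibitor hits first found in an ultra-high-throughput screen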
Sequence (P65502 whole entry): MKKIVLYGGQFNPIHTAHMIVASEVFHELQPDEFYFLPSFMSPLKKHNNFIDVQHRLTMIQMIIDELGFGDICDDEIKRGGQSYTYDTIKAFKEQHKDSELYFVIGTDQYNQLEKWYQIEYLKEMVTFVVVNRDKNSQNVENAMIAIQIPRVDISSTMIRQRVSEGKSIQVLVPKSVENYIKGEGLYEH
Active and inactive are the calls of the source.

The examples below pair each entry with its known result.
N#CC1=C(S)N=C(N)C(c2nc(-c3ccccc3)cs2)C12CCCCC2 (stereo not given) :: 23.2 µM (active)
Cc1ccc(C2CC(c3cccs3)=NN2C(=O)CSc2nc(=O)n3ccc(C)cc3n2)cc1 (stereo not given) :: 25.4 µM (active)
O=C(O)c1cccc(NC(=S)N/N=C/c2ccccc2OCc2cccc(Br)c2)c1 :: 15.8 µM (active)

Task: Reported IC50, compound `Cc1c([N+](=O)[O-])cc(N2C(=O)C=CC2=O)cc1[N+](=O)[O-]` : ____
Result: 6.33 µM (active)

Task: Can you share its IC50? I mean this compound: `COc1ccc(Br)cc1/C=N/Nc1ccc(S(=O)(=O)Nc2ccccc2C(=O)O)cc1[N+](=O)[O-]`
Result: 19.9 µM (active)

###

target: Short transient receptor potential channel 4 (Mus musculus, UniProt Q9QUQ5); test: block of DAMGO-driven TRPC4 calcium entry – cell-based, HEK293 TRPC4/mu-opioid, Fluo-4 calcium, dose response (AID 434942); format: functional;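 note: potency of inhibitors blocking the TRPC4 calcium response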
Sequence (Q9QUQ5 whole entry): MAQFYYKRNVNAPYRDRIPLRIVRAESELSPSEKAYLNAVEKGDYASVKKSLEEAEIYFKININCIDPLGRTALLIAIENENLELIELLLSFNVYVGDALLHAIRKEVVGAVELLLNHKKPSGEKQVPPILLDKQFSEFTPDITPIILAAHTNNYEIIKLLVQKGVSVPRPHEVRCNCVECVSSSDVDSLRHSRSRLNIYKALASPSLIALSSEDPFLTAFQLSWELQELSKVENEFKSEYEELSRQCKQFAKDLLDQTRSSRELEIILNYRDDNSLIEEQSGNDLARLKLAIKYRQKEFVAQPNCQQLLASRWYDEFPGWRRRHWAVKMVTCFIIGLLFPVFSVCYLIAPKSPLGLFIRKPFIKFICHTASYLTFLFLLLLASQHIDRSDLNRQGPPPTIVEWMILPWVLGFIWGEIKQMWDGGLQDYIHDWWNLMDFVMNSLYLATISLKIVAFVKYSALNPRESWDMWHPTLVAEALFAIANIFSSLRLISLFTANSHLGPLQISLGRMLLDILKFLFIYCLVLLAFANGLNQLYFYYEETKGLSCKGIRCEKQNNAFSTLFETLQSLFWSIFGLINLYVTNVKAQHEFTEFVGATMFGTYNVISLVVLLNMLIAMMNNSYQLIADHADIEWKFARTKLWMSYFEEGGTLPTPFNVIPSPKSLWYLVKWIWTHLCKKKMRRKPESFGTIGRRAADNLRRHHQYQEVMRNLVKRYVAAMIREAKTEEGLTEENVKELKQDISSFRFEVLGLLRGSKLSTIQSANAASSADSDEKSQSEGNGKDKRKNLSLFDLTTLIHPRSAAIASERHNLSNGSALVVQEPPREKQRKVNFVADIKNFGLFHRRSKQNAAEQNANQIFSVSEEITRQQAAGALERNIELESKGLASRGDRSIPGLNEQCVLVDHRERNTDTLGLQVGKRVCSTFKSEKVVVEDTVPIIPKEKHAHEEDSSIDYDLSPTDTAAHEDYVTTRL
Calls of active or inactive are those of the source.
metric name: EC50

Example entries begin here.
O=C(NCCN1CCOCC1)c1ccc2c(c1)N(Cc1ccc(F)cc1)C(=O)CS2 :: 4.73 µM (active)
CCn1cc(CN2CCCC(CO)(Cc3cccc(Cl)c3)C2)cn1 (stereo not given) :: 5.96 µM (active)
CCCn1nc([N+](=O)[O-])c(C(C#N)c2nc3ccccc3o2)c(Cl)c1=O (stereo not given) :: 6.68 µM (active)
Cc1ccc(C(=O)NC(=S)Nc2c(C)ccc3nsnc23)cc1 :: 5.96 µM (active)

# ---- query compound ----
Task: Lab note: need EC50 with Short transient receptor potential channel 4 (Mus musculus, UniProt Q9QUQ5) for entry `CC(C)CN(CC(C)C)c1ccc(C=C2C(=O)NC(=S)NC2=O)cc1[N+](=O)[O-]` , please look it up.
Result: 1.88 µM (active)

###

These molecules were tested on Cytochrome P450 2C9 (Homo sapiens); AC50 is the recorded read-out.

Task: Query for Cytochrome P450 2C9 (Homo sapiens): what AC50 does the record show for `COCCn1c(=O)c(-c2ccc(F)cc2)nc2cnc(Oc3ccccc3)nc21` ?
Result: 10 µM (inconclusive)

Task: What measured AC50 is associated with CC(C)(C)C1CCc2c(C(=O)N/N=C/c3cccs3)csc2C1 (stereo not given) on Cytochrome P450 2C9 (Homo sapiens)?
Result: 7.94 µM (inconclusive)

Task: Checklist item: AC50 tested on Cytochrome P450 2C9 (Homo sapiens), entry `O=C(Nc1cccnc1)c1ccc2snnc2c1` , value?
Result: 25.1 µM (inconclusive)

Task: Provide the documented AC50 with Cytochrome P450 2C9 (Homo sapiens) as the system for `O=c1c(-c2ccc(F)c(F)c2)nc2cncnc2n1-c1ccccc1`
Result: 15.8 µM (inconclusive)

Task: Provide the documented AC50 with Cytochrome P450 2C9 (Homo sapiens) as the system for `CCOC(=O)c1c(C)n(C)c2ccc(OC(=O)c3ccco3)cc12`
Result: 1.12 µM (inconclusive)

Task: Item `COc1ccc(CNC(=O)Nc2cccs2)cc1OC` with Cytochrome P450 2C9 (Homo sapiens) - AC50?
Result: 39.8 µM (inconclusive)

Task: Report AC50 for `Nc1cc(N)nc(SCC(=O)NNC(=O)c2ccc(Cl)cc2)n1` tested on Cytochrome P450 2C9 (Homo sapiens).
Result: 28.2 µM (inconclusive)

Task: Report AC50 for C[C@H]1C2=C3C(CC[C@H]4C(OCc5ccc(F)cc5C(F)(F)F)OC[C@](C)([C@@H]34)N(C(=O)OC(C)(C)C)C2)C(CO)C1CO (stereo not given in full) tested on Cytochrome P450 2C9 (Homo sapiens).
Result: 39.8 µM (inconclusive)

Task: Item: `COC(=O)c1ccccc1OCC(=O)N1CCN(c2ccc(OC)cc2)CC1` Test system: Cytochrome P450 2C9 (Homo sapiens) Read-out: AC50 Value: ?
Result: 17.8 µM (inconclusive)

Task: Short answer please: AC50, Cytochrome P450 2C9 (Homo sapiens), entry `O=C1C[C@H](c2ccccc2)[C@@H](c2ccc(Br)cc2)O1`
Result: 3.16 µM (inconclusive)

###

biological target: High affinity choline transporter 1 (Homo sapiens, UniProt Q9GZV3); experiment: human choline transporter blockers, potency – cell-based, 5-point CRC, membrane potential dye, dose response (AID 504840); format: functional
Sequence (Q9GZV3 whole entry): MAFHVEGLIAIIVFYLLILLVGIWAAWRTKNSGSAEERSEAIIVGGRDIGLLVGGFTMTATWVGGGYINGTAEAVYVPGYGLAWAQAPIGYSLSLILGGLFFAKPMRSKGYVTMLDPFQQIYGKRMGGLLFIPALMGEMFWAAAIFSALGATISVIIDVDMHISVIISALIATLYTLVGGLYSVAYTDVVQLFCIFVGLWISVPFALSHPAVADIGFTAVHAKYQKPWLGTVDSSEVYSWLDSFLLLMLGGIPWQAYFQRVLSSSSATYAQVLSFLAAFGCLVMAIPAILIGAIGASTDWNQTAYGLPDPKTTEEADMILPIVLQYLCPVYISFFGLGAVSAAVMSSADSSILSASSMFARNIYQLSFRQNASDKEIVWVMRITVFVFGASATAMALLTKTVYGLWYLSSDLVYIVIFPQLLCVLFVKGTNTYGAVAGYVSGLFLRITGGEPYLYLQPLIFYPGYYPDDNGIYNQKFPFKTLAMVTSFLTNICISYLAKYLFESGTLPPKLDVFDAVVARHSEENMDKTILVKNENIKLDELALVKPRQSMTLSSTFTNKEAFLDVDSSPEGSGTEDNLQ
Activity calls are given as the source filed them.
metric name: IC50

Take a look at these entries with their results.
Cc1cc(C)c(NC(=O)CCCCCNC2CCCCC2)c(C)c1 :: 12.6 µM (active)
C=CCN(CC=C)S(=O)(=O)c1ccc2nc(NC(=O)C(C)C)sc2c1 :: 13.8 µM (active)
CC1CCCC(C)N1CCCNC(=O)CN1C(=O)c2cccnc2Oc2ccc(Cl)cc21 (stereo unspecified) :: 13.8 µM (active)
Nc1ncnc2c1ncn2[C@@H]1O[C@H](CO)[C@@H](O)[C@H]1O :: 0.571 µM (active)

Task: # lookup: IC50 of Cc1ccc(S(=O)(=O)CCC(=O)OC(C)C(=O)N2CCc3ccccc32)cc1 (stereo unspecified)
Result: 12.6 µM (active)

Task: For the compound `CC(C)(C)NC(=O)NC(=O)CN1CCC(Cc2ccccc2)CC1` , what IC50 is on record?
Result: 12 µM (active)

###

molecular target: Coagulation factor XII (Homo sapiens); format: functional;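 note: activated factor XIIa alpha cleaving a fluorogenic AMC peptide substrate; inhibitor potency from loss of enzyme activity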
The source made the active and inactive calls.
Would you mind answering with one of these outcomes? TRUE = active, FALSE = inactive

// below: answered molecules
Brc1cccc(/C=N/Nc2nn[nH]n2)c1 :: FALSE
CC(=O)Nc1ccc(NC(=O)CCn2c(=S)oc3ccccc32)cc1 :: FALSE
COc1cc(C(=O)O/N=C2\C=CC(=O)C(C)=C2)cc(OC)c1OC :: TRUE

Turning now to a further record.
Task: # outcome recorded in this test, key = `Cc1ccc(C)c(S(=O)(=O)ON2C(=O)c3ccccc3C2=O)c1`
Result: TRUE

###

# AC50 values compiled below
assay: P. falciparum Dd2 growth inhibitors, dose response, SYBR Green, cherry-picked samples (AID 1159567); type: functional, cell-based
Calls of active or inactive are those of the source.

Recorded results for 3 compounds are shown here.
N#Cc1cccc(-c2ccc([C@@H]3[C@@H]4CN(C(=O)C5CCC5)C[C@H]3N4)cc2)c1 :: 3.71 µM (active)
COc1cccc(NC(=O)N(C)C[C@@H]2Oc3cc(C#Cc4ccc(F)cc4)ccc3S(=O)(=O)N([C@@H](C)CO)C[C@@H]2C)c1 :: 2 µM (active)
C[C@H](CO)N1C[C@H](C)[C@@H](CN(C)Cc2cccc(C(=O)Nc3ccccc3N)c2)OCc2ccccc2-c2c(n(C)c3ccccc23)C1=O :: 1.21 µM (active)

Let us examine a further case.
Task: Quick one: AC50 for `C[C@@H]1CN([C@H](C)CO)C(=O)c2cccc(NC(=O)CCCCCC(=O)Nc3ccccc3N)c2O[C@@H]1CN(C)S(=O)(=O)c1ccccc1` ?
Result: 0.989 µM (active)

###

target: Voltage-gated N-type calcium channel alpha-1B subunit/Amyloid beta A4 precursor protein-binding family A member 1 (Homo sapiens, UniProt Q00975+Q02410); format: protein assay
Sequence (Q00975 whole entry): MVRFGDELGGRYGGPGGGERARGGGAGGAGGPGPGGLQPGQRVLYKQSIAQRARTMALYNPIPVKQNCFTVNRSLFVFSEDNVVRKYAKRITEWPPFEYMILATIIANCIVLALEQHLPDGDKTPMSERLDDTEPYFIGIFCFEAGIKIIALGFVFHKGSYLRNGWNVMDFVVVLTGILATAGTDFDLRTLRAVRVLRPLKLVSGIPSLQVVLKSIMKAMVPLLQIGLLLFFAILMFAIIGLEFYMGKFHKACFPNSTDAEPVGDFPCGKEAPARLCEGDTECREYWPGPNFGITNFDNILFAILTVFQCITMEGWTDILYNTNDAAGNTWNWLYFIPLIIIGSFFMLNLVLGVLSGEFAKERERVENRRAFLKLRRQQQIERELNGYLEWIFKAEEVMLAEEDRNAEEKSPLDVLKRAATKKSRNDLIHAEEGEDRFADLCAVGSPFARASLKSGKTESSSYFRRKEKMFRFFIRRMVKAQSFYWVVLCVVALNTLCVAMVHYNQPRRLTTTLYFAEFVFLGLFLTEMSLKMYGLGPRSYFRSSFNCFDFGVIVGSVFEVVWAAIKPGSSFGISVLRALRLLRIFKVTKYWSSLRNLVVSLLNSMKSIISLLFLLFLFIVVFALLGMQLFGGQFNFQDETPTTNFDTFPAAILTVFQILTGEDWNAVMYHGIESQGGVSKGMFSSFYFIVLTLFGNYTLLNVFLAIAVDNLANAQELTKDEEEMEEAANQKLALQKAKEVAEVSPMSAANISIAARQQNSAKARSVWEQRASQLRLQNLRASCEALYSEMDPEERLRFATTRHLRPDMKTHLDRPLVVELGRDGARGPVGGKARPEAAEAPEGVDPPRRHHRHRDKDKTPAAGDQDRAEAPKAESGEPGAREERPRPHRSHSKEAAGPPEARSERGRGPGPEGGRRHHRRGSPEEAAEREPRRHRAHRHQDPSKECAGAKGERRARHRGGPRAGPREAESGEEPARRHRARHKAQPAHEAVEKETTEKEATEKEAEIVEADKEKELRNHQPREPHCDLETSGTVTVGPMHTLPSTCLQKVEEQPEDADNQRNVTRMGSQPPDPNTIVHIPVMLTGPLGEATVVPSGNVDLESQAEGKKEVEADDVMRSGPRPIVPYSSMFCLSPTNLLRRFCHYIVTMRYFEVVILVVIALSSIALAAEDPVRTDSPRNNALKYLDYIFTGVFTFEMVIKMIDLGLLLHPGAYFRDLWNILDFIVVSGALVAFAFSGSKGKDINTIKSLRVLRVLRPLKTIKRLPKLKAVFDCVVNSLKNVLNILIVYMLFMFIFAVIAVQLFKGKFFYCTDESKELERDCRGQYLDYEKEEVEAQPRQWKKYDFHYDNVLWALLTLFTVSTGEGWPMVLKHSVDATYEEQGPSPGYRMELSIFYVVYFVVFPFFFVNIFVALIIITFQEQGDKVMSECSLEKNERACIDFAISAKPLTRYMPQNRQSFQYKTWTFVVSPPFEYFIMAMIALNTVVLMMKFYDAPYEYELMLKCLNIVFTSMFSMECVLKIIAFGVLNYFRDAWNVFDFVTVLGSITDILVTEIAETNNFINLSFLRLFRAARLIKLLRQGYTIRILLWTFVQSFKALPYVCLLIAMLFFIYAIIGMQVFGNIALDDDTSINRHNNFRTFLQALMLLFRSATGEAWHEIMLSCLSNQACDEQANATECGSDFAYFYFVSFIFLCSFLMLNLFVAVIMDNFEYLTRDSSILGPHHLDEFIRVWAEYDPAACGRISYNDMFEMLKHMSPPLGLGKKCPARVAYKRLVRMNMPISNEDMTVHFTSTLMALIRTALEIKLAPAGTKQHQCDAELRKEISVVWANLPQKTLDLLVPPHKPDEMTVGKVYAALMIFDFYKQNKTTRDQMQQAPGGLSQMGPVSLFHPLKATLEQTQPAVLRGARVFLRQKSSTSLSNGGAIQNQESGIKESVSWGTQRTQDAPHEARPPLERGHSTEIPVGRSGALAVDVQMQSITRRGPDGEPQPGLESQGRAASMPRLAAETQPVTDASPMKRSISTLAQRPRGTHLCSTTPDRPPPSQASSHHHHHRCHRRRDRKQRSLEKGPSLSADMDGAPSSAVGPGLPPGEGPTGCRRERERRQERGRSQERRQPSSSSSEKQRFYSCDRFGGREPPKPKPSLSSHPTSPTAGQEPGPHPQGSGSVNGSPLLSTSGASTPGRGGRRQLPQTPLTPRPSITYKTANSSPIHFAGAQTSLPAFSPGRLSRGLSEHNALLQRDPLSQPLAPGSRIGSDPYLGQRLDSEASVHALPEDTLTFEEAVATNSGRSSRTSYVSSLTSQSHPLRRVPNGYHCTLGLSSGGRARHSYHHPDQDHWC
Sequence (Q02410 whole entry): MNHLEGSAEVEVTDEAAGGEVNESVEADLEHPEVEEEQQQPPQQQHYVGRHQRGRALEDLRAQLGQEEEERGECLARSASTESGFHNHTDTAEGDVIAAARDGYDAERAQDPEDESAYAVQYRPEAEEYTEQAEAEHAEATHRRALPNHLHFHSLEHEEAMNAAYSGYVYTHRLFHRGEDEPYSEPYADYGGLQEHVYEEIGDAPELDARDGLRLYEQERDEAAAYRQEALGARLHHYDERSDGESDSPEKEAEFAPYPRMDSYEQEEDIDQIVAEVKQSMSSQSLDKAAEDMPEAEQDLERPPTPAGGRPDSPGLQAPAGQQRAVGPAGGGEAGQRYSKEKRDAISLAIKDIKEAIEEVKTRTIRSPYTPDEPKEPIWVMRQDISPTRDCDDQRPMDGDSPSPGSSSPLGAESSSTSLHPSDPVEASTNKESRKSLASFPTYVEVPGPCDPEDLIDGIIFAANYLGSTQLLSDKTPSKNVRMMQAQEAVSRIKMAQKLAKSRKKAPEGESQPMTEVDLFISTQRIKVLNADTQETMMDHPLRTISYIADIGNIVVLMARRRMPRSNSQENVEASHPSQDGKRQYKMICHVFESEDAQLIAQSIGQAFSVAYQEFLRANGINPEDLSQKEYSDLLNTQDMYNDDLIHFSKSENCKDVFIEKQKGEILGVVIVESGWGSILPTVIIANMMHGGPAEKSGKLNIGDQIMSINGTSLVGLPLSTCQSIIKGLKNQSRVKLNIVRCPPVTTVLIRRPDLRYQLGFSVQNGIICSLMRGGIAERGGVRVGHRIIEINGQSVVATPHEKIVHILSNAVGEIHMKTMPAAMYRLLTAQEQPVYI
Calls of active or inactive are those of the source.
metric name: IC50

Recorded results for 4 compounds are shown here.
CC1=C(C#N)C(=O)N(C2CCS(=O)(=O)C2)C(=O)/C1=C\c1ccco1 (stereo not given) :: > 56.8 µM (not active)
O=C(CCS(=O)(=O)c1ccc(Br)cc1)NCc1ccco1 :: 12.1 µM (active)
O=C1c2ccccc2-c2onc3ccc(NCCCn4ccnc4)c1c23 :: 3.18 µM (active)
COc1cc(NC(=O)c2ccccc2)ccc1NC(=O)c1cc2ccccc2o1 :: > 56.8 µM (not active)

Task: Give the measured IC50 of `COc1ccc(N2C(=O)NC(=O)/C(=C\c3ccc([N+](=O)[O-])s3)C2=O)cc1` .
Result: 18.2 µM (active)
